Examples of compounds with documented pEC50 follow.
# target of assay: human apelin receptor (APJ, AGTRL-one, APLNR) (Homo sapiens, UniProt P35414)
# Sequence (P35414 1-380): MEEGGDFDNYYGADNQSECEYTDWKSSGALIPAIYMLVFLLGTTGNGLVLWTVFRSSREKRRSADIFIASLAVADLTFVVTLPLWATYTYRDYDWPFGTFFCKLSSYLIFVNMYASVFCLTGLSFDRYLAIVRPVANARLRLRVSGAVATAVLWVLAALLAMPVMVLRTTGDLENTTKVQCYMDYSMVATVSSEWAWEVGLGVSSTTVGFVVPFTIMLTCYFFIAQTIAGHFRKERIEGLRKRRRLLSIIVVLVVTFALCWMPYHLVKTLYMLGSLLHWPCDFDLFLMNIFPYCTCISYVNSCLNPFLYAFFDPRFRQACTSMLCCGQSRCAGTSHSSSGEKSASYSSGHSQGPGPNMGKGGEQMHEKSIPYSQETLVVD
# procedure details: cell-based cAMP TR-FRET assay of apelin receptor activation
# applied conditions: CHO cells expressing human APJ, forskolin-stimulated cAMP, 0.5 h incubation, 50% of control (apelin-13, 1 nM) response; read-out: Potency Category (EC50)
pEC50: −log10 of the molar value.

Below are worked cases with known answers.
>>> recorded_result("CCCCS(=O)(=O)c1ccccc1C(Oc1ccc(C#N)cc1)C(=O)Nc1nc2cc(OC)c(OC)cc2s1 (centres unmarked)")
"6.30 to 6.70"
>>> recorded_result("CCS(=O)(=O)c1ccc(C(Oc2ccc(C#N)cc2)C(=O)Nc2nc3cc(OCCN(C)C)c(OC)cc3s2)cc1 (centres unmarked)")
"< 6.30"
>>> recorded_result("CCS(=O)(=O)c1ccc(C(Oc2ccc(C#N)cc2C(F)(F)F)C(=O)Nc2nc3cc(OC)c(OC)cc3s2)cc1 (centres unmarked)")
"6.70 to 7.00"
>>> recorded_result("CCS(=O)(=O)c1ccc(C(Oc2ccc(C#N)cc2)C(=O)Nc2nc3cc(F)c(OC)cc3s2)cc1 (centres unmarked)")
"< 6.30"
>>> recorded_result("CCS(=O)(=O)c1ccc(C(Cc2ccccc2)C(=O)Nc2nc3cc(OC)c(OC)cc3s2)cc1 (centres unmarked)")
"< 6.30"
>>> recorded_result("CCS(=O)(=O)c1ccc(C(Oc2ccc(C#N)cc2)C(=O)Nc2nc3nc(OCCOC)c(OC)cc3s2)cc1 (centres unmarked)")
"< 6.30"
>>> recorded_result("COc1cc2nc(NC(=O)C(Oc3ccc(C#N)cc3)c3ccc(C(=O)NCCN4CCCCC4)cc3)sc2cc1OC (centres unmarked)")
"> 7.30"
>>> recorded_result("CCN(CC)c1ccc2sc(NC(=O)C(Oc3ccc(C#N)cc3)c3ccc(S(=O)(=O)CC)cc3)nc2c1 (centres unmarked)")
"< 6.30"

Ask | Retrieve pEC50 measured for COc1cc2nc(NC(=O)C(Oc3ccc(C#N)cc3)c3ccc(C(=O)N(C)C)cc3)sc2cc1OC (centres unmarked) and print it.
Reply | > 7.30

Ask | Hello, please tell me recorded pEC50 for this one: CCS(=O)(=O)c1ccc(C(Oc2ccc(C#N)cc2)C(=O)Nc2nc3ccc(N4CCN(C)CC4)cc3s2)cc1 (centres unmarked)
Reply | < 6.30

Ask | Read the entry CCS(=O)(=O)c1ccc(C(Oc2ccc(C#N)c(Cl)c2)C(=O)Nc2nc3cc(OC)c(OC)cc3s2)cc1 (centres unmarked) and write its reported pEC50.
Reply | > 7.30
